These data points were gathered from patent US8273767B2.

Counter-ions that a name gives are not always drawn.
MEASURE_NAME: melting point

For orientation, consider the following solved cases.
{"MOLECULE": "C[C@@H]1CCCN1CCc1ccc2cc(-c3ccc(C(F)(F)F)cc3)ccc2n1 (as salt: hydrochloride)", "melting point": "143 to 145 °C (dec.)"}
{"MOLECULE": "C[C@@H]1CCCN1CCc1ccc2cc(-c3cncc(C#N)c3)ccc2n1 (as salt: tartrate)", "melting point": "100 to 102 °C"}

Data request: GET /values?readout=melting point&item= C[C@@H]1CCCN1CCc1ccc2cc(-c3cccc(C#N)c3)ccc2c1
Data returned: 228.5 to 231.6 °C

Data request: Similarly, C[C@@H]1CCCN1CCc1ccc2cc(-c3cncnc3)ccc2n1 (as salt: hydrochloride) ?
Data returned: 160 to 162 °C

Data request: Would you mind doing Cc1noc(C)c1-c1ccc2nc(CCN3CCC[C@H]3C)ccc2c1 (as salt: hydrochloride) as well?
Data returned: 174 to 175 °C

Data request: What about this molecule? C[C@@H]1CCCN1CCc1ccc2cc(-c3ccc(F)nc3F)ccc2n1 (as salt: tartrate)
Data returned: 142 to 143 °C

Data request: What do you get for C[C@@H]1CCCN1CCc1ccc2cc(-c3ccc(N(C)C)cc3)ccc2n1 (as salt: tartrate) ?
Data returned: 155 to 156 °C
